System: plasma proteins
assay-explanation: Protein binding in human plasma (dialysis)
Type: in vitro ADME
run-conditions: plasma; human, summary over concentrations; read-out: bound to plasma proteins
outcome-measure: fraction unbound

Task item: Supply fraction unbound value. Item: "CO[C@@H]1[C@H](OC(=O)N2CC(CCN3CCOCC3)C2)CC[C@]2(CO2)[C@H]1[C@@]1(C)O[C@@H]1CC=C(C)C"
Reply: 0.65 to 0.75

---

assay-explanation: Protein binding in mouse plasma (dialysis)
Format: in vitro ADME
run-conditions: intended 5 nM, actual 5.20 nM at end of 4-hour dialysis, read-out: % Bound (converted)
outcome-measure: fraction unbound at 4 h, 5 nM
Please give the numeric answer without any surrounding text.

Task item: Recall and state the measured fraction unbound at 4 h, 5 nM for CO[C@@H]1[C@H](OC(=O)N2CC(CCN3CCOCC3)C2)CC[C@]2(CO2)[C@H]1[C@@]1(C)O[C@@H]1CC=C(C)C [Compound A] .
Reply: 0.298

---

assay-explanation: Pharmacokinetics after intravenous administration in dogs
run-conditions: in vivo; Dog, IV Bolus, 0.142 mg/kg
outcome-measure: clearance

Task item: // fetch clearance given entry CO[C@@H]1[C@H](OC(=O)/C=C/c2ccc(OCCN(C)C)cc2)CC[C@]2(CO2)[C@H]1[C@@]1(C)O[C@@H]1CC=C(C)C [beloranib, reference compound]
Reply: 33.3 mL/min/kg

---

assay-explanation: Protein binding in rat plasma (dialysis)
Type: in vitro ADME
run-conditions: Rat Plasma, 240 nM; read-out: % Bound (Mean) (converted)
outcome-measure: fraction unbound at 240 nM
Note: the reply should be a number with no unit written.

Task item: // Input: CO[C@@H]1[C@H](OC(=O)/C=C/c2ccc(OCCN(C)C)cc2)CC[C@]2(CO2)[C@H]1[C@@]1(C)O[C@@H]1CC=C(C)C [beloranib, reference compound] . Output its fraction unbound at 240 nM only.
Reply: 0.0415

---

assay-explanation: Toxicology study in the rat, s.c. Q3D for 28 days
Assay type: in vivo, Sprague Dawley rats
run-conditions: male, Sprague Dawley, rat, in vivo, sc, 0.6 mg/kg, Day 1, male rats, NOAEL 0.6 mg/kg
outcome-measure: Cmax (ng/mL)
Please reply with the bare figure in ng/mL and do not write the unit itself.

Task item: Determine from records and report Cmax for CO[C@@H]1[C@H](OC(=O)/C=C/c2ccc(OCCN(C)C)cc2)CC[C@]2(CO2)[C@H]1[C@@]1(C)O[C@@H]1CC=C(C)C [beloranib, reference compound]
Reply: 19.2

---

assay-explanation: Toxicology study in the rat, s.c. Q3D for 28 days
Type: in vivo, Sprague Dawley rats
run-conditions: female, Sprague Dawley, rat, in vivo, sc, 6 mg/kg, Day 28, female rats, NOAEL 6 mg/kg
outcome-measure: Cmax
State the value with its unit after it.

Task item: Tell me its Cmax given "CO[C@@H]1[C@H](OC(=O)N2CC(CCN3CCOCC3)C2)CC[C@]2(CO2)[C@H]1[C@@]1(C)O[C@@H]1CC=C(C)C" as the entry.
Reply: 412 ng/mL

---

assay-explanation: Toxicology study in the rat, s.c. Q3D for 28 days
Type: in vivo, Sprague Dawley rats
run-conditions: male, Sprague Dawley, rat, in vivo, sc, 6 mg/kg, Day 1, male rats, NOAEL 6 mg/kg
outcome-measure: Cmax
Kindly report the value followed by its unit.

Task item: Fill in Cmax for record CO[C@@H]1[C@H](OC(=O)N2CC(CCN3CCOCC3)C2)CC[C@]2(CO2)[C@H]1[C@@]1(C)O[C@@H]1CC=C(C)C [Compound A]
Reply: 351 ng/mL

Every entry's value here was drawn from patent US20200030278A1.
